Target: CCR2 receptor (Homo sapiens, UniProt P41597)
Sequence (P41597 1-360 isoform P41597-2): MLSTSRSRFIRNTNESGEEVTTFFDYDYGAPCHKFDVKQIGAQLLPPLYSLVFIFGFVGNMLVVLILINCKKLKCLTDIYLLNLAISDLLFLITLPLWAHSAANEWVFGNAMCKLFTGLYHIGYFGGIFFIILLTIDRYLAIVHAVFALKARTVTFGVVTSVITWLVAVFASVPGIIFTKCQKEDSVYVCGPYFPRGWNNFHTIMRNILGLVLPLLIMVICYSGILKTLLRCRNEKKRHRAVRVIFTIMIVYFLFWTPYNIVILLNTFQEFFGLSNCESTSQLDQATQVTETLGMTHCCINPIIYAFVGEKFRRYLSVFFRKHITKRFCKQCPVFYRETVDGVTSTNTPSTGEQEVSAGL
Assay: Inhibition of MCP-1 induced Ca-flux in human THP-1 cells
Conditions: inhibition of specific MCP-1 induced Ca2+ flux, 10^-7 M hMCP-1, 20 minutes pre-incubation, FLIPR, Fluo-3 AM
measure: IC50 (nM)

molecule: CCC(c1ccc(Cl)c(Cl)c1)n1c(C(=O)OC)c(NC(=O)c2ccccn2)[nH]c1=S (centres unmarked)
IC50 / nM: 39.8
//
molecule: CCC(=O)Nc1[nH]c(=S)n(C(CC)c2ccc(Cl)c(Cl)c2)c1C(=O)OC (centres unmarked)
IC50 / nM: 126
//
molecule: CCC(c1ccc(Cl)c(Cl)c1)n1c(C(=O)OC)c(NC(=O)C2CCCO2)[nH]c1=S (centres unmarked)
IC50 / nM: 79.4

[P] CCC(c1ccc(Cl)c(Cl)c1)n1c(C(=O)OC)c(NC(=O)C2CCOC2)[nH]c1=S (centres unmarked)
[Q] CCC(c1ccc(Cl)c(Cl)c1)n1c(C(=O)OC)c(NC(=O)N2CCCCC2)[nH]c1=S (centres unmarked)
Which shows the larger IC50 value: P or Q ? Answer format: the label of the selected item.
Q

###

Molecular target: CCR2 receptor (Homo sapiens, UniProt P41597)
Assay: Inhibition of MCP-1 induced Ca-flux in human THP-1 cells
Conditions: inhibition of specific MCP-1 induced Ca2+ flux, 10^-7 M hMCP-1, 20 minutes pre-incubation, FLIPR, Fluo-3 AM
measure: IC50 (nM)
Respond with the bare value in nM.

compound: CCC(c1ccc(Cl)c(Cl)c1)n1c(C(=O)OC)c(NC(=O)c2cccnc2)[nH]c1=S (stereo not drawn) [Compound 5]
studySystem: CCR2 receptor (Homo sapiens, UniProt P41597)
IC50, nM: 200

# IC50 measured on CCR2 receptor (Homo sapiens, UniProt P41597) for item CCC(c1ccc(Cl)c(Cl)c1)n1c(C(=O)OC)c(N)[nH]c1=S (stereo not drawn) [Compound 1] = 63.1

The value of IC50 recorded for CCC(c1ccc(Cl)c(Cl)c1)n1c(C(=O)OC)c(NC(=O)OC)[nH]c1=S (stereo not drawn) [Compound 15] when tested on CCR2 receptor (Homo sapiens, UniProt P41597) reads 15.8
